FYI, the data here is from the nanobody polyreactivity screen of Harvey et al. (2022).

Experiment: yeast display, Sf9 membrane polyspecificity reagent, FACS + sequencing; frameworks hold sequencing errors
parameter: polyreactivity (PSR sort gate)

QVQLVESGGGLVQAGGSLRLSCAASGFIFDVYAMGWYRQAPGKERELVAAISRSGGSTHYADSVKGRFTISRDNAKNTVYLQMNSLKPEDTAVYYCATGIRVGYAKYDYWGQGTQVTVSS high polyreactivity
QVQLVESGGGLVQAGGSLRISCAASGSIFLYYAMGWYRQPPGKEREFVAAISYSGGRTYYADSVKGRFTISRDNAKNTVYLQMNSLKPEDTAVYYCNALYRLGVSGLTQSRYGYWGQGTQVTVSS high polyreactivity
QLQLVESGGGLVQAGGSLRLSCAASGSTYGPYAMGWYRQAPGKERELVSAITISGDSTNYADSVKGRFTISRDNAKNTVYLQMNSLKPEDTAVYYCAAAYYWLQSWYDYWGQGTQVTVSS low polyreactivity
QVQLVESGGGLVQAGGSLRLSCAASGRIFDLYAMGWYRQAPGKERELVATISSGGSTYYADSVKVRFTISRDNAKNTVYLQMNSLKPEDTAVYYCAADSWVQFDYWGQGKQVTVSS low polyreactivity
QVQLVESGGGLVQAGGSLRLSCAASGFIFRQDAMGWYRQAPGKERELVAAISWRGGSTYYADSVKGRFTISRDNAKNTEYLQMNSLKPEDTAVYYCATRQTKYSNYRGDYWGQGTQVTVST high polyreactivity

The value of polyreactivity (PSR sort gate) measured for the sequence QVQLVESGGGLVQAGGSLRLSCDASGITIRLYGMGWYRQAPGTERELVATITRDGRTYYADSVKGRFTISRDNAKNTVYLQMNSLKPEDTGVYYCARPARYSYGDGYWGQGTEVTVSS turned out to be low polyreactivity

Form field polyreactivity (PSR sort gate), entry QVQLVESGGGLVQAGGSRRLSCAASGRTFEGNAMGWYRPAPGKERELVAAISTSGGRTYYADSVKGRFTISRDNAKNTVYLQLNSLIPEDTAVYDCNTDQYSPYEYSSFDSWGQCTQVTVSS : low polyreactivity

Value of measured polyreactivity (PSR sort gate) for the entry QVQLVESGGGIVQAGGSLRLSCAASGSNLQYKAMGWYRQAPGKERELVADITSSGGSTYYADSVKGRFTISRDNAKNTVYLQMNSLKPEDTAVYYFAKDTHWAYYWGQGTQVTVSS : low polyreactivity

Entry QVQLVESGGGLVHAGGSLRLSCAASGFTFRYGMGWYRQAPRKERELVAAISNTGGSTYYADSVKGRFTISRDNAKNTVYLKMNSLKPEDTSVYYCAAAGGLWWVFYALDYWGQGTQVSVSS ; polyreactivity (PSR sort gate) = low polyreactivity

# polyreactivity (PSR sort gate) of QVQHVESGGGLVQAGGSLSLSCAASGFIFSAYAMGWYRRAAGKERKLVDAITRSGGITDYADSVKGRFTISRDIAKNTVYLQMNSLKPEDTADYYCAALRVQQVKSYYYWGQGTQVTVSW = high polyreactivity

Quick note, polyreactivity (PSR sort gate) for QVQLVESGGGLVQAGGSLRLSCAASGLTLSYYAMGWYRQAPGKERELVATISWRTGSTYYADSVKGRFTISRDNAKNTVYLQMNSLKPEDTAVYYCNARGFQYSYSHLIYYPYDYWGQGTQVTVSS landed at high polyreactivity

* * *

Test: yeast display, Sf9 membrane polyspecificity reagent, FACS + sequencing; frameworks hold sequencing errors
parameter: polyreactivity (PSR sort gate)

Completed entries (count: 4):
QVQLVESGGGLVQAGGSLRLSCAASGYTYSDNAMGWYRPAPGKERELVAAITSGVSTYYADSVKGRFTISRDNAKNTVYLQMNSPKPEDTAVYYCAKDVAVYADLYQGAPYGYWGQGTQVTVST low polyreactivity
QVQLEESGGGLVQAGGSLRLSCAASGSIFALYAMGWYRQAPGKERELVAAISYRGGRTYYADSVKARFTISRDYAKNTVYLQMNILKPEDTAVYYCATDFPCKFDFWGQGTQVTVSS low polyreactivity
QVQLVESGGGLVQAGGSLRLSCAASGFIFTSYAMGWYRQAPGKERELVAAITRSGGRTYYADSVKGRFTISRDNAKNTVYLQMNSLKPEDTAVYYCAAVTFYQSPARGYWGQGTQVTVSS high polyreactivity
QVQQVESGGGLVQAGGSLRLSSAASGITFRYYAMGWYRQAPGKERELVAAISSTGGSSYYADSVKGRFTISRDNAKNTVYLQMNSLKPEDTAVYYCNTQYNSQYDYWGQGTQVTVSS high polyreactivity

We now examine a further sequence.
The reported polyreactivity (PSR sort gate) of the sequence QVQLVESGGGLVQAGGSLRLSCAASGSTFYVYAMGWYRQAPGKERELVAAITSGSSTYADSVKGRFTISRDNAKNTVYLQMNSLKPEDTAVFYCNALSRTAWSYYLYPSTPFDYWGQGTQVTVSS was low polyreactivity

* * *

Experiment: yeast display, Sf9 membrane polyspecificity reagent, FACS + sequencing; frameworks hold sequencing errors
parameter: polyreactivity (PSR sort gate)

QVQLVESGGGLVQAGGSLRLSCAASGSSRIYDMGWYRQAPGKERVWVAAISSTGSTYYADSEKGRYTISRDNAKNTGYLQMNSLKPEETADYYCAAARYYRYDSYSSWGQGTQVTVSS high polyreactivity
QVQLVESGGGLVQAGGSLRLSCAASGRIFPQYAMGWYRQAPGKERELVAGITSVGSTYYADSVKGRFTISRDNAKTTVYLQMNSLKPEDTAVFYCAAVPSRYVRANRRTYRYYYWGQGTQVTVSS high polyreactivity
QVQLVESGGGLVQAGGSLRLSCAASGRIYGVYVMGWSRQAPGKERELVAAISWGGGTYYADSVKGRFTISRDNSKNTVTLKMNSLKPEDTAVYYCNAESYYTMYYWGQGTQVTVSS low polyreactivity
QVQLVESGGALVQAGATLRISSAASGSIFYRNSMRWYRQAPGKEREKVAANSSDGSRNYADSVKGRFSISRDNAKNTVYLQMNSLKPEDNAVYYCAVDYGTQYGEYTYYDYDYWGQCTQVTVSS low polyreactivity

Continue with the next sequence.
// sample QVQLVESGGGLVQAGGSLRLSCAASGGIFYPNAMGWYRQAPAKERELVAANTSGGSTSYADSVKGRFTISRDNAKDTVYLQMNSLKPEDTAVYYCAASTTAYAYVNYGSWGQGTQVTVSS , its polyreactivity (PSR sort gate) was low polyreactivity

* * *

Test: yeast display, Sf9 membrane polyspecificity reagent, FACS + sequencing; frameworks hold sequencing errors
parameter: polyreactivity (PSR sort gate)

Observe how each entry below is paired with its result.
QVQLVESGGGLVQAGGSLRLSCAASGSTFYIYDMGWYRQAPGKEREFVAAIDFSGSSTYADSVKGRFTISRDNAKNTVYFQINSLKPDDSAVFDCAAYQIYQYDGPYVYWGQGTQVTVSS low polyreactivity
QVQLVDSGGGLVHAGGSLRLSCASSGSIFNYYAMGCYRQPPGKVRELVAAISYRTGSTYYADSVKGRFTISRDNAKNTVYLQMTSLKPEDTSVYYCAADTRYGYGYWGQGTQVTVSS high polyreactivity
QVQLVESGGGLVQAGGSLRLSCAASGSTFVPNAMGWYRQAPGKERELVAAISSVGSTNYADSVKGRFTISRDNAKNTVYLQLNSLKPEDTAVYYCAVRYPWRYFKYGYWGQGTQVTVSS low polyreactivity
QVQLVESGGGLVQAGGSLRLSCAASGSTFQAKAMGWYRQAPGKERELVAAISWRGSSTYYADSVKGRFTISRDNAKNTVYLQMNSLKPEDPAVYYCAAASSGSYYRYEYWGQGTQVTVSS high polyreactivity
QVQLVESGGGLVQAGGSLRLSCATSGSTFNDYDMGWYRQAPGKERELVAAISSSVSTYYADSVKGRFTISRDNAKNTVYLQMNSLKQEDTAVYYCAADYTGVCRYDYWGQGTLVTVSS low polyreactivity
QVQLVESGGGLVQAGGSLRLSCAASGFTFIRYAMGWYRPAPGKERELVATITRRGGSTYYADSVKGRFSISRDNAKNTVYLQMNCLKPEDTAVYYCNRDYVTYGKYYYWGQGTQVTVSS high polyreactivity

polyreactivity (PSR sort gate) recorded for this sequence, QVQLVESGGGLVQAGGSLRLSCAASGRIFSYYAMGWYRQAPGKERELVAAIRWSGGRTYYADSVKGRFTISRDNAKNTVYLQMNSLKPEDTAVYYCAAEGAYRLAYDYWGQGTQVTVSS , is high polyreactivity

Note to self: polyreactivity (PSR sort gate) recorded for QVQLVESGGGLVQAGGSLRLSCAASGLTSKFYAMGWYRQAPGKERELVAAISGSGGSTYYADSVKGRFTISRDKAKNTVYLQMNSLKPEDTAVYYCAARYFGLRYYYWGQGTQVTVSS was high polyreactivity

Lab note: measured polyreactivity (PSR sort gate) of QVQLVESGGGLVQAGGSLRLSCAASGFIFRYYAMGWYRQAPWKERELVASITRSGGRTYYADSVKGRFTISRDNAKNTVYLQMNSLKPEDTAVYYCAARHYRSEYEYDYWGQGTQVTVSS was high polyreactivity

Kindly note the recorded polyreactivity (PSR sort gate) for QVQLVESGGGLVQAGGSLRLSCAASGGIFSPNAMGWYRQAHGKERELVASISSNGGSTNYADSVKGRFTISRDNAKNTVYLQMNSLKPEDTAVYYCAGLQKRRSYWRPFYWGQGTQVTVSS , which is low polyreactivity

get_value(item= QVHHVESAGGLVQAGGILRLSCAASGRTFGANAMGWYRQPPVKERELVAAISKSGGRTYYADSVTGRFTISRDNAKNTVYLQMNSLKPEDTEVYYCNKVMCVSQAGGFDYWGQGTQVTVSS , readout=polyreactivity (PSR sort gate)) returns high polyreactivity
